- assay overview: Comparative in vivo bioavailability study in the dog (oral gavage, plasma LC-MS-MS)
- condition label: Beagle, plasma, po, 0.8 mg/kg, oral tapentadol valine carbamate 0.8 mg tapentadol base equiv/kg, calculated as ln2/mean k, read-out: t½ of tapentadol valine carbamate (converted)
measured metric: half-life (min)

In [3]: df
Out[3]:
                                   compound  measured_metric  value_unit  experimental_result
0  CC[C@H](c1cccc(OC(=O)N[C@H](C(=O)O)C(C)C)c1)[C@H](C)CN(C)C (racemic) [Tapentadol valine carbamate]        half-life         min                  288

---

- assay overview: Comparative bioavailability after oral administration to rats (plasma LC-MS-MS)
- Type: in vivo
- condition label: male, Sprague Dawley, rat, plasma, po, 10 mg free base equiv/kg, oral tapentadol 10 mg free base equiv/kg, 2 h, mean, animal 5 excluded, read-out: Plasma concentration of tapentadol
measured metric: concentration at 2 h

>>> print(df.to_string())
                                   compound  experimental_result
0  CC[C@@H](c1cccc(O)c1)[C@@H](C)CN(C)C (racemic)           2.44 ng/mL

---

- assay overview: Comparative bioavailability after oral administration to rats (plasma LC-MS-MS)
- Type: in vivo
- condition label: male, Sprague Dawley, rat, plasma, po, 10 mg tapentadol free base equiv/kg, oral tapentadol valine carbamate 10 mg tapentadol free base equiv/kg, calculated as ln2/mean k, read-out: t½ of tapentadol valine carbamate (converted)
measured metric: half-life (h)

>>> print(df.to_string())
                                   compound  measured_metric  experimental_result
0  CC[C@H](c1cccc(OC(=O)N[C@H](C(=O)O)C(C)C)c1)[C@H](C)CN(C)C (racemic) [Tapentadol valine carbamate]        half-life                 3.54
